FYI, the data here is from PubChem BioAssay AID652154.

experiment: PAX8 transcriptional activity inhibition in RMG-I – RMG-I cells, luciferase, single concentration, primary screen (AID 652154); settings: RMG-I TPO-luciferase reporter, SteadyGlo, 24 h; at 12.6 µM;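 note: luciferase light reporting Pax8 driven TPO promoter activity; plate controls were median of neutral control wells for no effect and mitoxantrone controls for full effect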
Out of some 360,000 compounds screened, about 4,200 (1.2%) were called active.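 Rule for the calls: active = mean replicate inhibition at least 60% with every replicate also reaching 60%; inconclusive = only one of the two criteria is met; inactive = mean below 60% and not all replicates reaching 60%.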 The list comes from a sample in which actives are over-represented; it also holds close analogues and randomly drawn compounds.
Entry note: the call must match one of label 1 (active), label 0 (inactive)

CCCCC(O)(CCCC)C(=O)NN(C(=O)CCl)c1ccccc1 label 0
O=C(Nc1cccc(F)c1)N[C@@H]1CC[C@@H](CCn2cc(Cc3ccccc3)nn2)O[C@@H]1CO label 0
Cc1noc(C)c1S(=O)(=O)Nc1ccc2c(c1)CC(=O)N([C@@H](C)CO)C[C@@H](C)[C@@H](CN(C)C(=O)Nc1ccc(C(F)(F)F)cc1)O2 label 0

Data request: Look up the recorded call for O=C(Nc1ccccc1)Nc1ccc2c(c1)[C@@H]1C[C@@H](CC(=O)N3CCCCC3)O[C@H](CO)[C@@H]1O2 in this test.
Data returned: label 0

Data request: Next: CCCC(O)(CCC)C(=O)NN(C(=O)CCl)c1cccc(C)c1
Data returned: label 1

---

experiment: PAX8 transcriptional activity inhibition in RMG-I – RMG-I cells, luciferase, single concentration, primary screen (AID 652154); details: RMG-I TPO-luciferase reporter, SteadyGlo, 24 h; at 12.6 µM
Among all 360,000 compounds or so, about 4,200 (1.2%) were called active.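 The calls were made as follows: active = mean replicate inhibition at least 60% with every replicate also reaching 60%; inconclusive = only one of the two criteria is met; inactive = mean below 60% and not all replicates reaching 60%.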 For the sample, actives were picked, then their nearest neighbours and some compounds at random.
Entry note: the call must match one of active, inactive

Answered examples (10):
CC(C)NC(=O)Nc1ccc2c(c1)C(=O)N([C@@H](C)CO)C[C@@H](C)[C@H](CN(C)C(=O)Cc1ccccc1)OCCCC[C@H](C)O2 inactive
CC(C)c1cn(CC[C@@H]2CC[C@@H](NC(=O)C3CCC3)[C@@H](CO)O2)nn1 inactive
C[C@@H]1CN([C@H](C)CO)C(=O)c2cc(NC(=O)c3ccncc3)ccc2O[C@@H]1CN(C)C(=O)Nc1ccc(F)cc1 inactive
C[C@@H]1CCCCO[C@@H](CN(C)Cc2ccc3c(c2)OCO3)[C@@H](C)CN([C@@H](C)CO)C(=O)c2cc(NC(=O)Nc3ccccc3)ccc2O1 inactive
COc1ccc(-c2ccc([C@@H]3[C@@H](CO)N4C(=O)CN(Cc5ccccc5)C[C@@H]34)cc2)cc1 inactive
Cc1cccc(NC(=O)c2ccc([N+](=O)[O-])o2)c1 active
N/C(=N\OS(=O)(=O)c1cccc([N+](=O)[O-])c1)c1ccncc1 active
Nc1nc2c(ncn2[C@@H]2O[C@H](C(=O)N[C@H](Cc3ccccc3)C(=O)NCC3CCCCC3)[C@@H](O)[C@H]2O)c(=O)[nH]1 inactive
CCCNC(=O)C[C@H]1CC[C@H]2[C@H](COc3ccc(NC(=O)CC)cc3C(=O)N2C)O1 inactive
CC(=O)N1[C@H](CO)[C@H](c2ccc(-c3ccccc3)cc2)[C@H]1CNC(=O)C1CC1 inactive

Data request: Look up the recorded call for Cc1noc(C)c1NC(=O)Nc1ccc2c(c1)C(=O)N([C@@H](C)CO)C[C@@H](C)[C@H](CN(C)C(=O)Nc1ccc(C(F)(F)F)cc1)OCCCC[C@@H](C)O2 in this test.
Data returned: inactive

Data request: Next: C[C@@H]1CCCCO[C@H](CN(C)Cc2ccncc2)[C@H](C)CN([C@H](C)CO)C(=O)c2cc(NC(=O)Nc3ccccc3)ccc2O1
Data returned: inactive

---

assay: PAX8 transcriptional activity inhibition in RMG-I – RMG-I cells, luciferase, single concentration, primary screen (AID 652154); conditions: RMG-I TPO-luciferase reporter, SteadyGlo, 24 h; at 12.6 µM
Hit rate of the full screen: of about 360,000 compounds, about 4,200 (1.2%) were called active.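 The calls were made as follows: active = mean replicate inhibition at least 60% with every replicate also reaching 60%; inconclusive = only one of the two criteria is met; inactive = mean below 60% and not all replicates reaching 60%.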 Many of the other results were omitted from the sample, so actives are more common in it than they were.
Entry note: the call must match one of active, inactive

Answered examples (5):
COMPOUND	ASSIGNED_LABEL
O=C(NCc1nnnn1-c1ccc(Cl)cc1)c1ccc([N+](=O)[O-])o1	active
O=C(CN1CCOCC1)NCC[C@@H]1CC[C@@H](NC(=O)Nc2ccccc2)[C@H](CO)O1	inactive
Cc1ccc(-c2cc(C(=O)N/N=C/C=C/c3ccccc3)n[nH]2)o1	inactive
CC(=O)c1ccc(S(=O)(=O)NCc2nnnn2-c2ccccc2)cc1	inactive
CC(C)c1cc(C(=O)N/N=C/C(Br)=C/c2ccccc2)n[nH]1	active

Data request: Look up the recorded call for CC[n+]1cc(C)ccc1/C=C/c1ccc(N(C)C)cc1 in this test.
Data returned: active

Data request: Next: O=C(N/N=C\c1cccc(Br)c1)c1ccccc1-n1cccc1
Data returned: inactive

Data request: Next: C/C=C/c1ccc2c(c1)O[C@@H](CN(C)CC1CCOCC1)[C@@H](C)CN([C@H](C)CO)S2(=O)=O
Data returned: inactive

Data request: Next: COc1ccc(OC)c(C2C3=C(N=c4s/c(=C\c5cccc(O)c5)c(=O)n42)c2ccccc2CC3)c1 (stereo not given)
Data returned: active

Data request: Next: C[C@@H]1CN([C@@H](C)CO)C(=O)c2cc(NC(=O)CCCN(C)C)ccc2O[C@H]1CN(C)Cc1ccccc1
Data returned: inactive

---

assay: PAX8 transcriptional activity inhibition in RMG-I – RMG-I cells, luciferase, single concentration, primary screen (AID 652154); conditions: RMG-I TPO-luciferase reporter, SteadyGlo, 24 h; at 12.6 µM;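 note: luciferase light reporting Pax8 driven TPO promoter activity; plate controls were median of neutral control wells for no effect and mitoxantrone controls for full effect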
The campaign covered roughly 360,000 compounds. About 4,200 (1.2%) were called active.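 Rule for the calls: active = mean replicate inhibition at least 60% with every replicate also reaching 60%; inconclusive = only one of the two criteria is met; inactive = mean below 60% and not all replicates reaching 60%.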 Only a selection was taken, and actives are over-represented in it overall.
Entry note: the call must match one of TRUE = active, FALSE = inactive

Data request: Look up the recorded call for COc1ccc(CN(C)C[C@@H]2OCCCC[C@H](C)Oc3ccc(NS(=O)(=O)c4ccc(F)cc4)cc3C(=O)N([C@H](C)CO)C[C@H]2C)cc1 in this test.
Data returned: FALSE

---

test: PAX8 transcriptional activity inhibition in RMG-I – RMG-I cells, luciferase, single concentration, primary screen (AID 652154); settings: RMG-I TPO-luciferase reporter, SteadyGlo, 24 h; at 12.6 µM;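 note: luciferase light reporting Pax8 driven TPO promoter activity; plate controls were median of neutral control wells for no effect and mitoxantrone controls for full effect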
The campaign covered roughly 360,000 compounds. About 4,200 (1.2%) were called active.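 How the source made its calls: active means mean replicate inhibition at least 60% with every replicate also reaching 60%; inconclusive means only one of the two criteria is met; inactive means mean below 60% and not all replicates reaching 60%.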 The sample as a whole holds a higher share of actives than the screen did.
Entry note: the call must match one of active, inactive

COMPOUND	ASSIGNED_LABEL
O=C(Cn1cnc2ccccc2c1=O)NNC(=O)c1ccccc1F	inactive
COc1cc(OC)cc(C(=O)N[C@H](C(=O)NNC(=O)c2ccc(Br)cc2)C(C)C)c1	inactive
OC[C@@H]1CN(Cc2cccs2)C[C@H](n2cnc3c(NC4CCCC4)ncnc32)O1	inactive

Data request: Look up the recorded call for O=C(Nc1ccccc1F)N1[C@H](CO)[C@H]2c3ccccc3NC[C@H]21 in this test.
Data returned: inactive

Data request: Next: C[C@@H]1CCCCO[C@@H](CN(C)C(=O)Nc2ccc(C(F)(F)F)cc2)[C@H](C)CN([C@H](C)CO)C(=O)c2cc(NC(=O)c3ccccc3)ccc2O1
Data returned: inactive

Data request: Next: Cc1cccc(CS(=O)(=O)c2ncc(Cl)c(C(=O)Nc3ccc(F)cc3)n2)c1
Data returned: active

Data request: Next: COc1ccc(S(=O)(=O)N(C)C[C@H]2OCCCC[C@@H](C)Oc3ccc(NC(=O)NC(C)C)cc3C(=O)N([C@H](C)CO)C[C@H]2C)cc1
Data returned: inactive

Data request: Next: C[C@@H]1CCCCO[C@@H](CN(C)C(=O)CCC(F)(F)F)[C@@H](C)CN([C@H](C)CO)C(=O)c2cc(NC(=O)Nc3ccccc3)ccc2O1
Data returned: inactive

Data request: Next: Cc1cccc(NC(=O)c2nc(S(=O)(=O)Cc3ccccc3)ncc2Cl)c1
Data returned: active

Data request: Next: CCNC(=O)Nc1ccc2c(c1)C(=O)N(C)[C@H]1CC[C@@H](CC(=O)N[C@H](C)c3ccccc3)O[C@@H]1CO2
Data returned: inactive

Data request: Next: COc1ccccc1C#Cc1ccc([C@@H]2[C@H](CO)N3CCCCN(C(=O)C4CCCC4)C[C@@H]23)cc1
Data returned: inactive

Data request: Next: CN1CCCCN2[C@@H](CO)[C@@H](c3ccc(C4=CCCC4)cc3)[C@@H]2C1
Data returned: inactive

---

assay: PAX8 transcriptional activity inhibition in RMG-I – RMG-I cells, luciferase, single concentration, primary screen (AID 652154); conditions: RMG-I TPO-luciferase reporter, SteadyGlo, 24 h; at 12.6 µM; stronger effect = higher value;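 note: luciferase light reporting Pax8 driven TPO promoter activity; plate controls were median of neutral control wells for no effect and mitoxantrone controls for full effect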
About 4,200 (1.2%) of roughly 360,000 compounds were called active. The sample holds actives, similar compounds and a random draw of the others, so the mix is not that of the screen.
REPORTED_METRIC: inhibition (%)
Return type: number; implicit unit %.

C[C@@H]1CCCCO[C@@H](CN(C)Cc2ccccc2)[C@H](C)CN([C@H](C)CO)C(=O)c2cc(NC(=O)Nc3cccc4ccccc34)ccc2O1 73.4
C[C@H]1CN([C@@H](C)CO)C(=O)Cc2cc(NS(=O)(=O)c3ccc(F)cc3)ccc2O[C@H]1CN(C)Cc1ccc(C(F)(F)F)cc1 -55.2
C[C@@H]1CCCCO[C@H](CN(C)Cc2ccccc2)[C@H](C)CN([C@@H](C)CO)C(=O)c2cc(NC(=O)Nc3cccc4ccccc34)ccc2O1 21
C[C@H]1CN([C@@H](C)CO)C(=O)Cc2cc(NS(=O)(=O)c3cccs3)ccc2O[C@@H]1CN(C)Cc1ccc(Oc2ccccc2)cc1 -11
C[C@@H]1CCCCO[C@@H](CN(C)Cc2ccc(C(=O)O)cc2)[C@H](C)CN([C@@H](C)CO)C(=O)c2cc(NC(=O)Nc3ccc(C(F)(F)F)cc3)ccc2O1 -16.9

Continue with the next compound.
Data request: Consider the compound shown here: C[C@@H]1CN([C@@H](C)CO)C(=O)c2cc(NC(=O)Nc3cccc4ccccc34)ccc2O[C@@H](C)CCCCO[C@H]1CN(C)Cc1ccccc1 What is its recorded inhibition?
Data returned: -1.82
